- ASSAY CONTEXT: pH 6.8
EXPERIMENTAL ENDPOINT: aqueous solubility (µg/mL)

                           structure_smiles  measurement
0  N#C/C(=C\c1cnn(Cc2ccccc2)c1)c1nc2cc(Cl)ccc2c(=O)[nH]1         0.17
1          CN(Cc1cccc(C#N)c1)c1cnc2ccccc2n1         11.8
2  COc1cc(/C=C2\CCCN([C@@H](C)c3ccc(F)cc3)C2=O)ccc1-n1cnc(C)c1         12.9
3  O=C(Nn1cnc2ccccc21)c1c2c(nc3ccccc13)CCC2         56.7
4   CCN1CCC(CNC(=O)c2cc(C)nc3cc(F)ccc23)CC1         37.2
5          O=C(CCc1cccs1)Nc1ccc(N2CCCC2)cn1         1.18
6  O=C(Nc1ccn(Cc2ccc(O)cc2C(F)(F)F)n1)c1c(F)cccc1F         43.5

---

Respond with label 1 for intrinsic clearance, human liver microsomes values of 20 mL/min/kg and above, label 0 for values below.

>>> df
                                    molecule  discrete_label
 0              O=C1NC2(CCC2)C(=O)N1Cc1ccon1         label 0
 1  CCOc1ccc(C(=O)Nc2cc(C(=O)OC)ccc2N2CCN(C(C)=O)CC2)cc1         label 1
 2  CN(CCO)C(=O)c1ccc(-c2cccc(C(F)(F)F)n2)cc1         label 0
 3  Cc1nc(CC2CCN(S(=O)(=O)c3c(C)noc3C)CC2)cc(NC2CCCC2)n1         label 1
 4  COc1cc(CN2C[C@H]3CCc4c(nc(C)[nH]c4=O)[C@H]3C2)cc(OC)c1OC         label 0
 5                    N#Cc1ccccc1N1CCC(N)CC1         label 1
 6  CN(C)[C@@H]1CN(C(=O)CCn2cnc3ccccc32)C[C@H]1O         label 0
 7  Cc1nc(C2CCN(Cc3ccc(C(F)(F)F)cc3)CC2)n[nH]1         label 0
 8  O=C(NC[C@@H]1CCN(c2ccccc2)C1)N1CCc2ccccc2C1         label 1
 9  O=C1CC(N2CCCN(c3ccc(C(F)(F)F)cn3)CC2)C(=O)N1c1ccccc1 (stereo not given)         label 1
10  Cc1ncc(CN2CC[C@@H](Nc3cncc(Cl)n3)[C@@H](C)C2)s1         label 1
11  COCC(=O)Nc1ccc(NC(=O)Cc2ccc(C(F)(F)F)cc2)cc1         label 1
12            CCN1CCC(N(C)c2ncnc3c2cnn3C)CC1         label 1
13             N#Cc1cccnc1NCCc1cn2c(n1)CCCC2         label 0
14  O=C1CCCN1c1ccc(CN2CCC(c3noc4cc(F)ccc34)CC2)cc1         label 1
15  NCC1CCCC1NC(=O)c1cc(N2CCNC2=O)ccc1F (stereo not given)         label 0
16                CN(C)c1ncn(-c2cccc(N)c2)n1         label 0
17  COC1(c2nc(Cc3ccccc3)no2)CCN(Cc2ncccc2Cl)CC1         label 1
18           O=C(NCc1ccc(CO)c(F)c1)Nc1ccccc1         label 0
19          CSc1cccc(-c2ccccc2-c2nnc(C)o2)c1         label 1
